Source listed as patent US20230349919A1.

Target: T1, human IL-4Rα (hIL-4Rα) monomeric protein (human, UniProt P24394 26-232, limits assumed)
T1 construct: also called hIL-4Rα antigen; barcoded hIL-4Rα
Assay: barcoded-antigen count on source cell (scRNA-seq)

BINDER	REGN560.L15_ab_raw
Table 1 Line # 1 antibody (BM_Plasma_cell) (antibody, human IgG4, V domains shown, Cloned with human IgG4/human Igk constants for Kd; barcode counts are of the source cell's own IgG) VH: EVQLVESGGGLVKPGGSLRLSCAASGFTFSSYSMNWVRQAPGKGLEWVSSISSSSSYIYYADSVKGRFTISRDNAKNSLYLQMNSLRAEDTAVYYCASLAARPFWGQGTMVTVSS VL: DIQMTQSPSSVSASVGDRVTITCRASQGISSWLAWYQQKPGRAPKLLIYAASSLQSGVPSRFSGSGSGTDFTLTISSLQPEDFATYYCQQANSFPLTFGGGTKVEIK	11200 counts
Table 1 Line # 15 antibody (BM_Plasma_cell) (antibody, human IgG4, V domains shown, Cloned with human IgG4/human Igk constants for Kd; barcode counts are of the source cell's own IgG) VH: EVQLVESGGALVQPGRSLRLSCAASGFAFDDYAMHWVRQAPGKGLEWVSGISWNGASLGYADSLKGRFTISRDNAKNSLYLQMNSLRSEDTALFYCARDYSSAWYGYFDYWGQGTLVTVSS VL: DIQMTQSPSSLSASVGDRVTITCRASQDISNYLAWYQQKPGKVPKLLIYAASTLQSGVPSRFSGSGSGTDFTLTISSLQPQDVATYYCQNYNSVPRTFGQGTKVEIK	2580 counts
Table 1 Line # 37 antibody (SP_B_cell) (antibody, human IgG4, V domains shown, Cloned with human IgG4/human Igk constants for Kd; barcode counts are of the source cell's own IgG) VH: QVHLVESGGDVVQPGRSLRLSCAASGFTFSYYGMHWVRQAPFKGLEWVAVIWYDGSNKYYADSVKGRFTITRDNSKNTVYLQMNSLRAEDTAIYYCARWGGFGVTGTHLDYWGQGTLVTVSS VL: DIQLTQSPSLLSASVGDRVTITCWASQDIAGHFAWYQQKPGTVPKLLIYAISTLDSGVPSRFSGSRSGTEFTLTISSLQPEDFATYYCQHLNSYPYTFGQGTKLEIK	6230 counts
Table 1 Line # 49 antibody (SP_Plasma_cell) (antibody, human IgG4, V domains shown, Cloned with human IgG4/human Igk constants for Kd; barcode counts are of the source cell's own IgG) VH: EVHLLESGGGFIQPGGSLRLSCAASGFTFSTYAMNWVRLAPGKGLEWVSTISGSGGFTSYTDSVQGRFTISRDNSKNKLYLQINNLTAEDTAVYYCAKDRRIVGATGFDYWGQGALVTVSS VL: DIQMTQSPSSLSASAGDRVTITCRASQSISSYLNWYQQKPGKAPKLLIYAASSLQSGVPSRFSGSGSGTDFTLTISSLQPEDSATYYCQQSYGFHTFGQGTRLEIK	1200 counts
